Please provide measured growth for the entries that follow.
# System: KM12 colon
# testName: NCI-60 one-dose screen, 48 h (100 = growth as untreated, 0 = no growth, -100 = all killed)
# measurementContext: 10 µM unless noted
The panel holds about 83,000 compounds, 20% with a hit somewhere; the sample as a whole holds those more often. Calls of active or inactive are those of the source. The calls were made as follows: active = growth percent below 10; inactive = the rest.

Previously resolved entries follow.
[
  {
    "compound": "O=C1/C(=C/c2cccc(Br)c2)COc2ccc(O)c(O)c21",
    "targetSystem": "KM12 colon",
    "growth": "-60.9% (active)"
  },
  {
    "compound": "COc1cc(-c2ccc(-c3ccc(C(=N)N)s3)s2)cc(OC)c1OC",
    "targetSystem": "KM12 colon",
    "growth": "27.7% (inactive)"
  },
  {
    "compound": "O=c1ccc2nc(-c3ccccc3)nn(-c3ccccn3)c-2c1",
    "targetSystem": "KM12 colon",
    "growth": "104% (inactive)"
  },
  {
    "compound": "Cc1ccc2c(c1)CC(O)CC1C(=O)N(CCO)CC(=O)N21 (configuration not stated)",
    "targetSystem": "KM12 colon",
    "growth": "105% (inactive)"
  },
  {
    "compound": "O=C(NS(=O)(=O)c1ccccc1)n1cc(-c2ccncc2)c(-c2cc(O)cc(Cl)c2)n1",
    "targetSystem": "KM12 colon",
    "growth": "99.5% (inactive)"
  }
]

For the 2 compounds below, give their growth values.
1. COc1ccc(-n2c(=O)n(-c3ccc(-c4nc5ccc(F)cc5s4)cc3)c(=O)c3cccnc32)cc1
2. CCOC(=O)CC1C(CNC(=O)NC)OC(n2cnc3c(NC(=O)Nc4ccccc4)ncnc32)C1O[Si](C)(C)C(C)(C)C (configuration not stated)

(A)
1. 102% (inactive)
2. 43.4% (inactive)

###

# System: T-47D breast
# testName: NCI-60 one-dose screen, 48 h (100 = growth as untreated, 0 = no growth, -100 = all killed)
# measurementContext: 10 µM unless noted
This is part of a sample that, as a whole, favours compounds with a hit. Of some 83,000 tested, about 20% had one in any assay.
reportedProperty: growth (%)
One number for each entry, in %.

For the 3 compounds below, give their growth values.
1. O=C(NS(=O)(=O)c1ccccc1)n1cc(-c2ccncc2)c(-c2cc(O)cc(Cl)c2)n1
2. COc1cccc(NC(=O)c2sc3nc(C)c(C(=O)c4ccccc4)cc3c2N)c1
3. CC1(C)C2=C(C(=O)N1Cc1ccccc1)C(c1ccco1)N(C(=O)C1CCC1)CCN2 (stereo not drawn)

(A)
90.1
88.6
90.9

###

Please provide measured growth for the entries that follow.
# Test system: HOP-62 NSCLC
# testName: NCI-60 one-dose screen, 48 h (100 = growth as untreated, 0 = no growth, -100 = all killed)
# measurementContext: 10 µM unless noted
This is part of a sample that, as a whole, favours compounds with a hit. Of some 83,000 tested, about 20% had one in any assay.
Give bare numbers, in %.

Previously resolved entries follow.
[
  {
    "structureString": "c1ccc2cc(Cn3cc[n+](Cc4ccc5ccccc5c4)c3)ccc2c1",
    "growth, %": 42.1
  },
  {
    "structureString": "CNC(=O)c1cc(Oc2ccc3nc(NC(=O)Nc4ccc(F)cc4F)sc3c2)ccn1",
    "growth, %": 60.7
  },
  {
    "structureString": "NCCCCCNc1noc(Cc2c[nH]c3cc(Br)ccc23)n1",
    "growth, %": 21.6
  },
  {
    "structureString": "Oc1c(Cl)cc(Cl)c2ccc(CN3CCNCC3)nc12",
    "growth, %": 29.3
  },
  {
    "structureString": "CCCN1C2CCC1/C(=C\\c1ccc(OC)cc1)C(=O)/C2=C/c1ccc(OC)cc1",
    "growth, %": 89.1
  }
]

For the 2 compounds below, give their growth values.
1. CCOc1ccc(N2C(=O)CCSC2=S)cc1
2. CCOC(=O)c1ccc2c(c1)[n+](=O)c(C(C)=O)c(C(F)(F)F)n2[O-]

(A)
1: 118; 2: 25.5

###

# Tested on: HOP-62 NSCLC
# testName: NCI-60 one-dose screen, 48 h
# measurementContext: 10 µM unless noted
About 83,000 compounds went through this panel and 20% of them were active in at least one assay; those are over-represented in the sample as a whole. Active and inactive are the calls of the source. How the source made its calls: active means growth percent below 10; inactive means the rest.
Your answer must be one of the following: active, inactive

[
  {
    "molecule": "CC(=O)[C@H]1CC[C@]2(C)[C@@H]1CC[C@@H]1[C@@]3(C)C/C(=C/c4cccnc4)C(=O)C(C)(C)[C@@H]3CC[C@]12C",
    "assignedLabel": "inactive"
  },
  {
    "molecule": "COC(=O)[C@H](C)NC(=O)[C@@H]1CCCN1C(=O)CNC(=O)[C@H](C)N",
    "assignedLabel": "inactive"
  },
  {
    "molecule": "C[C@@H]1N=C(c2ccc(Cl)cc2Cl)Nc2nc3ccccn3c2C1=O",
    "assignedLabel": "inactive"
  },
  {
    "molecule": "Clc1ccc2c(NCCCn3cnc4c(N5CCCC5)nc(Cl)nc43)ccnc2c1",
    "assignedLabel": "inactive"
  },
  {
    "molecule": "Cc1ccc(-c2nc(C#N)c(S(=O)(=O)n3nc(C)cc3N)o2)cc1",
    "assignedLabel": "inactive"
  },
  {
    "molecule": "O=C(c1ccccc1)[C@@H](c1ccccc1)[C@]1(O)C(=O)Nc2ccccc21",
    "assignedLabel": "inactive"
  }
]

(Q) Which outcome was assigned to CCOC(=O)c1c2c(n3ccc(NC(=O)CCN4CCCC4)cc13)C(=O)c1ncccc1C2=O in this test?
(A) active

(Q) Which outcome was assigned to CC1(C)C2=C(C(=O)N1Cc1ccccc1)C(c1ccco1)N(C(=O)C1CCC1)CCN2 (stereo unspecified) in this test?
(A) inactive

(Q) Which outcome was assigned to CCCNNC(=O)c1ccc(CNC(=O)/C=C/c2ccccc2)cc1 in this test?
(A) inactive

(Q) Which outcome was assigned to COc1cccc(/C=C2\CCc3ccccc3C2=O)c1 in this test?
(A) inactive

(Q) Which outcome was assigned to CN(C)C(=S)NN=C(c1ccccn1)c1ccccn1 in this test?
(A) inactive

(Q) Which outcome was assigned to C=C(CNCCO)[C@@H]1CC[C@]2(CO)CC[C@]3(C)[C@H](CC[C@@H]4[C@@]5(C)CCC(NCCO)C(C)(C)[C@@H]5CC[C@]43C)[C@@H]12 (stereo partly specified) in this test?
(A) inactive

(Q) Which outcome was assigned to C#CCOc1cccc(Nc2c(Cl)c(CCl)nc3ccc(Oc4ccccc4)cc23)c1 in this test?
(A) inactive

###

# Test system: NCI-H460 lung
# testName: NCI-60 one-dose screen, 48 h
# measurementContext: 10 µM unless noted
# Description: Growth inhibition of the NCI-H460 human Non-Small Cell Lung tumor cell line is measured as a screen for anti-cancer activity. Cells are grown in 96 well plates and exposed to the test compound for 48 hours. Compounds are tested at a single concentration, which is 10^-5 M for most compounds. The reported endpoint is percent growth (GI% or GIPRCNT), where numbers from 0 - 100% represent growth inhibition, and numbers from -100% - 0 represent cell death. […]
The panel holds about 83,000 compounds, 20% with a hit somewhere; the sample as a whole holds those more often. Activity calls are given as the source filed them. The calls were made as follows: active = growth percent below 10; inactive = the rest.
Your answer must be one of the following: active, inactive

Please review the following examples before continuing.
[
  {
    "molecule": "Cn1cc(-c2nc(-c3c[nH]c4c(Cl)nccc34)cs2)c2ccccc21",
    "assignedLabel": "inactive"
  },
  {
    "molecule": "N#CSCc1cc(Cl)c(CSC#N)cc1Cl",
    "assignedLabel": "inactive"
  },
  {
    "molecule": "Cc1cc(C(=O)Nc2cc(Nc3ncccc3-c3ncnc4nc[nH]c34)ccc2F)cc(C(C)(C)C#N)c1",
    "assignedLabel": "inactive"
  },
  {
    "molecule": "CN1CCN(CC(=O)N(C)c2ccc(N=C(c3ccccc3)c3c(O)[nH]c4ccc([N+](=O)[O-])cc34)cc2)CC1",
    "assignedLabel": "inactive"
  },
  {
    "molecule": "COc1ccc(C(=O)C2OC3=C(C(=O)CC(C)(C)C3)C2c2cccc(Oc3ccccc3)c2)cc1 (stereo not drawn)",
    "assignedLabel": "inactive"
  },
  {
    "molecule": "COc1cc(C(=O)c2c(-c3ccccc3)oc3ccccc23)cc(OC)c1O",
    "assignedLabel": "inactive"
  },
  {
    "molecule": "CCOC(=O)C1=C(C)N(C)C(=O)N(C)C1c1ccccc1 (stereo not drawn)",
    "assignedLabel": "inactive"
  }
]

From here, focus on the item given below.
(Q) Which outcome was assigned to Cc1nc2sc(C(=O)Nc3ccccc3)c(N)c2cc1C(O)c1ccccc1 (stereo not drawn) in this test?
(A) active

Origin of measurements: PubChem BioAssay (NCI)
